The measured values listed here are drawn from patent US20260297060A1.

experimentalProtocol: Pharmacokinetics after 21 days dosing in the efficacy study (plasma, tumor and brain concentrations; plasma AUC at steady state), Example 14
Assay type: in vivo, female BALB/c nude mice
setupConditions: mouse, plasma, po; 6 mg/kg p.o. QD x 21 days; 2 h; mean ± SEM

molSmiles: CCN(C)S(=O)(=O)Nc1ccc(F)c(Oc2ccc3ncn([C@H]4COC5(CCN(C6CC7(C6)CN(c6cc8c(cc6F)c(N6CCC(=O)NC6=O)nn8C)C7)CC5)C4)c(=O)c3c2)c1C#N
concentration at 2 h: 14600 ng/mL

* * *

experimentalProtocol: Pharmacokinetics in female BALB/c nude mice bearing A375 xenografts, 1 day dosing (PK and PD study): plasma, tumor and brain concentrations, AUC
Assay type: in vivo
setupConditions: mouse, plasma, po, 10 mg/kg, 10 mg/kg p.o. BID × 1 day; post 2nd dose; 0.5 h; read-out: Mean Concentration in Plasma ± SEM
readoutKind: concentration at 0.5 h (ng/mL)

molSmiles: CCN(C)S(=O)(=O)Nc1ccc(F)c(Oc2ccc3ncn([C@H]4COC5(CCN(C6CC7(C6)CN(c6cc8c(cc6F)c(N6CCC(=O)NC6=O)nn8C)C7)CC5)C4)c(=O)c3c2)c1C#N
readoutKind: concentration at 0.5 h
numericValue: 12800

* * *

experimentalProtocol: Example 6 pharmacokinetics assay for PKPD study (plasma, tumor, liver)
Type: in vivo, BALB/c nude mice
setupConditions: mouse, liver, po; 35 mg/kg, single dose; 12 h; read-out: Concentration in Liver (mean ± SEM)
readoutKind: concentration at 12 h (ng/g)

compound: COC(=O)N[C@@H](C)CNc1nccc(-c2cn(C(C)C)nc2-c2cc(Cl)cc(NS(C)(=O)=O)c2F)n1 [Encorafenib, encorafenib, reference compound]
readoutKind: concentration at 12 h
numericValue: 12.6

* * *

experimentalProtocol: Example 8 pharmacokinetics assay for efficacy study (plasma, liver)
Type: in vivo, BALB/c nude mice
setupConditions: mouse, liver, po, 10 mg/kg, p.o., BID × 10 days, read-out: Concentration in Liver (mean ± SEM)

compound: CCN(C)S(=O)(=O)Nc1ccc(F)c(Oc2ccc3ncn([C@H]4COC5(CCC(N6CCC(c7cc8c(cc7F)c(N7CCC(=O)NC7=O)nn8C)C(F)(F)C6)CC5)C4)c(=O)c3c2)c1C#N (single isomer, unassigned)
concentration at 6 h [ng/g]: 17200

* * *

experimentalProtocol: Pharmacokinetics in female BALB/c nude mice bearing A375 xenografts, 1 day dosing (PK and PD study): plasma, tumor and brain concentrations, AUC
Type: in vivo
setupConditions: mouse, tumor, po, 1.5 mg/kg, Compound 141; 1.5 mg/kg p.o. BID × 1 day; post 2nd dose; 36 h; read-out: Mean Concentration in Tumor ± SEM
readoutKind: concentration at 36 h (ng/g)

compound: CCN(C)S(=O)(=O)Nc1ccc(F)c(Oc2ccc3ncn(C4CC5(CCN(C6CC7(C6)CN(c6cc8c(cc6F)c(N6CCC(=O)NC6=O)nn8C)C7)CC5)C4)c(=O)c3c2)c1C#N (stereo not shown)
numericValue: 38.5

* * *

experimentalProtocol: Pharmacokinetics in female BALB/c nude mice bearing A375 xenografts, 1 day dosing (PK and PD study): plasma, tumor and brain concentrations, AUC
Format: in vivo
setupConditions: mouse, plasma, po, 3 mg/kg, 3 mg/kg p.o. BID × 1 day; post 2nd dose; 0.25 h; read-out: Mean Concentration in Plasma ± SEM
readoutKind: concentration at 0.25 h (ng/mL)

molSmiles: CCN(C)S(=O)(=O)Nc1ccc(F)c(Oc2ccc3ncn([C@H]4COC5(CCN(C6CC7(C6)CN(c6cc8c(cc6F)c(N6CCC(=O)NC6=O)nn8C)C7)CC5)C4)c(=O)c3c2)c1C#N
readoutKind: concentration at 0.25 h
unitName: ng/mL
numericValue: 1380
